src = paper PMC9090415

biological target: bacteriophage T4 DNA polymerase (Enterobacteria phage T4, UniProt P04415); construct: made in house; test: Counter-screen against bacteriophage T4 DNA polymerase; assay type: biochemical; conditions: DRC-2; 10'; concentration 5
Sequence (P04415 whole entry): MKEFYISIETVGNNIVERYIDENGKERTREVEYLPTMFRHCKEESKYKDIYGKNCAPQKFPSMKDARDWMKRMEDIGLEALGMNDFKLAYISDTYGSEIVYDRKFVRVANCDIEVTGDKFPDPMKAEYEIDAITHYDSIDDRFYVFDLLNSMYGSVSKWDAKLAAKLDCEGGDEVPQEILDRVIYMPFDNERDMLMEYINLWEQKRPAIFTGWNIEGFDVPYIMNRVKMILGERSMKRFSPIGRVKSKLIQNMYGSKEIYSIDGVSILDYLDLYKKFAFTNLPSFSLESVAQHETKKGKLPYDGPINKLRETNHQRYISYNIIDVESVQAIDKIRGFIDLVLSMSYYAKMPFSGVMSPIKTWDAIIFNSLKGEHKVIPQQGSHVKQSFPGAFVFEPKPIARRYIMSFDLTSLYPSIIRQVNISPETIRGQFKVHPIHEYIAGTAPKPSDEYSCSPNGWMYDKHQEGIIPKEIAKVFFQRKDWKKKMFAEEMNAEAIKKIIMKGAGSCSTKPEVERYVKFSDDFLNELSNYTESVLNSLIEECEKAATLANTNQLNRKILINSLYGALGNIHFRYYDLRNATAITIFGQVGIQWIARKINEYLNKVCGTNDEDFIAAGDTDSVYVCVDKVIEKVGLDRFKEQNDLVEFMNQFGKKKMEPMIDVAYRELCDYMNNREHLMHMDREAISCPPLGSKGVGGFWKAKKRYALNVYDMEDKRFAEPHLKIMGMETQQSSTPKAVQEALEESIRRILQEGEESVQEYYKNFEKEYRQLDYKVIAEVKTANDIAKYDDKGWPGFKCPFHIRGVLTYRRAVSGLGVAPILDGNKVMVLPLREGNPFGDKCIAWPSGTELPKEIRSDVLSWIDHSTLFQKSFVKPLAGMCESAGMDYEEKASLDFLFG
Hi there, I'd appreciate the recorded % inhibition T4 10' for every entry that follows.
// return numeric value only (unit: %, not printed)

Field: % inhibition T4 10' (bacteriophage T4 DNA polymerase (Enterobacteria phage T4, UniProt P04415)). Entry: CN(C)S(=O)(=O)Oc1ccc(-c2noc(-c3ccc(Oc4cc(Cl)cc(Cl)c4)o3)n2)cc1 [KU0263859]
17

Likewise for O=C1c2ccccc2C(=O)N1Oc1ccc([N+](=O)[O-])c([N+](=O)[O-])c1 [Molecule 66] ?
-4

Try this compound next: N#CC(=NNc1cc(C(F)(F)F)cc(C(F)(F)F)c1)C(=O)c1ccco1 [KU0264276]
9

And what about the compound CCOC(=O)C1=C2c3cc(OC)c(OC)cc3CC(C)(C)N2C(=O)C1=O [KU0193659] ?
6.54

Would you mind doing Cc1ccccc1C(=O)N1CCc2c(nc3cc(-c4ccccc4)[nH]n3c2=O)C1 [Molecule 41] as well?
13

Would you mind doing O=C(Cn1ccc2c(=O)[nH]ccc21)Nc1cc(F)ccc1F [Molecule 42, O=C(Cn1ccc2c1cc[nH]c2=O)Nc1cc(F)ccc1F] as well?
-13

Same read-out for Cc1ccc(NC(=O)Cn2ccc3c(=O)[nH]ccc32)cc1F [Molecule 48, O=C(Cn1ccc2c1cc[nH]c2=O)Nc1ccc(c(c1)F)C] ?
-12

Would you mind doing COc1ccc(-c2n[nH]cc2Oc2ccc(Cl)cc2)c(O)c1 [KU0029837] as well?
-28

Next compound: COc1ccc(CNC(=O)Cn2nc3c(c2NC(=O)Cc2cccs2)CSC3)cc1 [Molecule 55]
18

Now the compound Cc1ccc(-n2nnc(C(=O)O)c2-c2ccccn2)c(F)c1 [Molecule 54, Cc1ccc(c(c1)F)n1nnc(c1c1ccccn1)C(=O)O]
23

One more compound: O=C1N=C(Nc2cccc(Cl)c2Cl)S/C1=C\c1ccco1 [Molecule 3, O=C1N=C(S/C/1=C\c1ccco1)Nc1cccc(c1Cl)Cl]
29

Consider next the compound Cc1nc(/N=N/c2ccc(C(=O)[O-])cc2)c(COP(=O)([O-])[O-])c(C=O)c1O.[Na+].[Na+].[Na+] [KU0261395] in the same way.
-9

Entry to check: CC(=O)c1cc2c(N)c(/C(N)=N/C#N)sc2nc1C [KU0015866]
-17

Same for COc1ccc(-c2cc3nc4c(c(=O)n3[nH]2)CCN(C(=O)CCc2ccccc2)C4)cc1 [Molecule 17]
-46
